Each item that follows carries a reported GTP binding activity (% of control).
Biological target: Ras-related C3 botulinum toxin substrate 1 (Homo sapiens) (UniProt P63000)
Assay: compounds altering fluorescent GTP loading on wildtype Rac1 – biochemical, GST-Rac1 beads, flow cytometry, multiplex, primary screen (AID 757)
Conditions: at 10 µM, actives lie on both sides, 0 = cold GTP competed, 100 = untreated
Out of some 190,000 compounds screened, about 520 (0.27%) were called active. Roughly 2% stayed inconclusive and do not appear here. For the sample, actives were picked, then their nearest neighbours and some compounds at random.

| MOLECULE | TARGET OR TEST SYSTEM | GTP binding activity (% of control), % |
| --- | --- | --- |
| O=C(c1cn2ccccc2n1)N1CCc2c([nH]c3ccccc23)C1c1ccccn1 (stereo not drawn) | Ras-related C3 botulinum toxin substrate 1 (Homo sapiens) (UniProt P63000) | 98 |
| O=C(/C=C/c1ccccc1Cl)Nc1ccc(S(=O)(=O)Nc2ncccn2)cc1 | Ras-related C3 botulinum toxin substrate 1 (Homo sapiens) (UniProt P63000) | 100 |
| COc1ccc(CC(NC(C)=O)C(=O)NC2CCN(C(=O)C3CC3)CC2)cc1OC (stereo not drawn) | Ras-related C3 botulinum toxin substrate 1 (Homo sapiens) (UniProt P63000) | 101 |
